Target: T1, pig CD47 (pig, UniProt Q9GKE8 19-303)
T1 construct: whole, on cells; also called CD47 on porcine RBCs
T1 sequence (looked up): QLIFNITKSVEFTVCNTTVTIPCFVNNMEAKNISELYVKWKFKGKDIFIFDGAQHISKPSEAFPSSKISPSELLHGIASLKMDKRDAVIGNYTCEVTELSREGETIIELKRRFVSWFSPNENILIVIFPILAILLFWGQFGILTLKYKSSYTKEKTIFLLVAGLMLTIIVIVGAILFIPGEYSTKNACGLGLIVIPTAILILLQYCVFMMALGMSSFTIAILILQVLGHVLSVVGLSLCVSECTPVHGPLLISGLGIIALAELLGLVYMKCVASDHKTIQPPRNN
Assay: FACS, pig RBCs, supernatant 10 ng/ml
reportedEndpoint: mean fluorescence relative to chimera
Answers are plain numbers.

Example entries begin here.
Clone 6 (pVxK7b-037-hum06-LC / pVxK7b-037-hum06-HC) (antibody, human IgG1, kappa, V domains shown) VH: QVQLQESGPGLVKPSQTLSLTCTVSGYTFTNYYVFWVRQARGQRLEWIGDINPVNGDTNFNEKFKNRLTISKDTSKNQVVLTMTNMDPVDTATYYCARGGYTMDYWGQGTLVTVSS VL: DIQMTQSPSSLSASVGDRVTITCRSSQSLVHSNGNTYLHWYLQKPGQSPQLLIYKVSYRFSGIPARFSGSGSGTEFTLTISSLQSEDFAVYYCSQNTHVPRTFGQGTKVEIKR = 1.1
Clone 18 (pVxK7b-037-hum18-LC / pVxK7b-037-hum18-HC) (antibody, human IgG1, kappa, V domains shown) VH: EVQLVQSGAEVKKPGESLRISCKGSGYTFTNYYVFWIRQSPSRGLEWLGDINPVNGDTNFNEKFKNRVTITADKSTSTAYMELSSLRSEDTAVYYCARGGYTMDYWGQGTLVTVSS VL: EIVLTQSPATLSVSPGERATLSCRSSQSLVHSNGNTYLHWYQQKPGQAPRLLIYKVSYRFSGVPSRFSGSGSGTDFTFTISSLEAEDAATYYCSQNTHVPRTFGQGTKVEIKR = 1.2

Required: mean fluorescence relative to chimera, one value per binder below.
1. Clone 15 (pVxK7b-037-hum15-LC / pVxK7b-037-hum15-HC) (antibody, human IgG1, kappa, V domains shown) VH: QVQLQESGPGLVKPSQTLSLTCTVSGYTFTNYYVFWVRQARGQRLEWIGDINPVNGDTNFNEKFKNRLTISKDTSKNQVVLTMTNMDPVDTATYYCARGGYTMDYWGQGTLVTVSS VL: AIQLTQSPSSLSASVGDRVTITCRSSQSLVHSNGNTYLHWYQQKPGQAPRLLIYKVSYRFSGVPSRFSGSGSGTEFTLTISSLQPDDFATYYCSQNTHVPRTFGQGTKVEIKR
2. Clone 16 (pVxK7b-037-hum16-LC / pVxK7b-037-hum16-HC) (antibody, human IgG1, kappa, V domains shown) VH: QVQLQESGPGLVKPSQTLSLTCTVSGYTFTNYYVFWVRQARGQRLEWIGDINPVNGDTNFNEKFKNRVTISADKSISTAYLQWSSLKASDTAMYYCARGGYTMDYWGQGTLVTVSS VL: AIQLTQSPSSLSASVGDRVTITCRSSQSLVHSNGNTYLHWYQQKPGQAPRLLIYKVSYRFSGVPDRFSGSGSGTDFTLKISRVEAEDVGVYYCSQNTHVPRTFGQGTKVEIKR

Reply |
1.2
1.1
